Assignment: determine reported apparent KD of MS2 coat protein for the given sequences.
- Test system: MS2 coat protein
- EXPERIMENT: apparent KD of MS2 coat protein; designed switch direction (-1 OFF switch, 1 ON switch): -1; higher = weaker reporter binding
- RUN_PARAMETERS: Eterna round: R95; input ligand: FMN 200 uM
Answer with a number only, understood to be in nM.

Asked: apparent KD of MS2 coat protein lookup needed for AGUAGUAGUAUCCGAUCGUACAUGAGGAUCACCCAUGUAGCUAGACGUGCACGCGAUGCUCGUCAGACUACCAGAUG [salish99_TOv1_r3_036] (puzzle: Sensor v3, turn-off variant 1) , thanks.
Given back: 202

Asked: apparent KD of MS2 coat protein lookup needed for AAAUUACAAGCAAGAUCCUACAUGAGGAUCACCCAUGUGCUCGUCUUAUAAAGUACUAUCACGAAAGUGAUAGUACA [Mat - Sensor v3 - turn-off var 1 - Eli Mod - D58] (puzzle: Sensor v3, turn-off variant 1) , thanks.
Given back: 256

Asked: apparent KD of MS2 coat protein lookup needed for CAUGAUCUUCGGAUCAUGUACAUGAGGAUCACCCAUGUUACGAGCAGAUCUUCAUACAAGCUUUUUGCUCGUCUUAU [Sensor v3 - Turn-off variant 1 - 34] (puzzle: Sensor v3, turn-off variant 1) , thanks.
Given back: 34.5

Asked: apparent KD of MS2 coat protein lookup needed for AGUCCACAUGAGGAUCACCCAUGUCAGGAUAUACGCAAUACAAAAGAACCCAUCAAAAGUAGAAGGGACAGGGA [Getequ] (puzzle: Exclusion 1) , thanks.
Given back: 13.5

Asked: apparent KD of MS2 coat protein lookup needed for GGUCUGCGAGGAUAUACAUGAGGAUCACCCAUGUGCGAGAAACUAGUGAGGUCGAUUGGUAGAAGGCGCGGACG [Mat - Exclusion 3 - Mod of JL D83] (puzzle: Exclusion 3) , thanks.
Given back: 74.1

---

- Test system: MS2 coat protein
- EXPERIMENT: apparent KD of MS2 coat protein; designed switch direction (-1 OFF switch, 1 ON switch): -1; higher = weaker reporter binding
- RUN_PARAMETERS: input ligand: FMN 200 uM
EXPERIMENTAL_READOUT: apparent KD of MS2 coat protein (nM)
Answer with a number only, understood to be in nM.

Asked: apparent KD of MS2 coat protein lookup needed for GCACUGCGAGGAUAUACAUGAGGAUCACCCAUGUGUCGGCAGACUUGUUUGGUCUAAGGUAGAAGGCGCGUAAA [JR_Ex3_Sub003] (Eterna round: R97, puzzle: Exclusion 3) , thanks.
Given back: 145

Asked: apparent KD of MS2 coat protein lookup needed for UGUGUGCUGCGAGGAUAUACAUGAGGAUCACCCAUGUAAAUGUGUGAGGCUUUGCCUCACACAAUGUAGAAGGCGCAGUACACU [Mat - Exclusion NG 2 - Mod of JL - D4] (Eterna round: R96, puzzle: Exclusion NG 2) , thanks.
Given back: 16.9

Asked: apparent KD of MS2 coat protein lookup needed for UCGUCGUCGUCAGGAUAUAGUCUUAUUGUUAUGCUUUUGUUCGUACAUGAGGAUCACCCAUGUGGCUAGAAGGGACUAAAGUUU [JR_ExcNG2_Sub017] (Eterna round: R96, puzzle: Exclusion NG 2) , thanks.
Given back: 19.3

Asked: apparent KD of MS2 coat protein lookup needed for ACAUUACAUGAGGAUCACCCAUGUGAGGAUAUGGAGCGAGACUGUCCUGUCGCGUACACCAGAAGGCGCGGGUG [1st #51] (Eterna round: R97, puzzle: Exclusion 1) , thanks.
Given back: 115

Asked: apparent KD of MS2 coat protein lookup needed for AGCCACAGAGGAUAUACAUACAUCCAGUAGUAAAGAAUACUACAUGAGGAUCACCCAUGUAGAAGGCUGUGGCA [Omei Ex2 BD B13] (Eterna round: R97, puzzle: Exclusion 2) , thanks.
Given back: 308

Asked: apparent KD of MS2 coat protein lookup needed for UAGGCGUAAGGAUAUAUCUUUGGACGAGCGAGGGACCAGAGAUAGAAGGUACAUGAGGAUCACCCAUGUGGGUC [Eternabot (L1) Solution 41] (Eterna round: R97, puzzle: Exclusion 4) , thanks.
Given back: 189

Asked: apparent KD of MS2 coat protein lookup needed for AAAUACGCUGAGGAUAUGCGGCGCACAAAAUAAGCAGAAGGCAGCACUUGAGGAUCACCCAAGUGGCCCGAGAA [Enusrees] (Eterna round: R97, puzzle: Exclusion 6) , thanks.
Given back: 15.5

Asked: apparent KD of MS2 coat protein lookup needed for AGCUAGUGCCGAGGAUAUACAUGAGGAUCACCCAUGUAAGGCAGUCGGUUUCUGACUGCCAAUAUGUAGAAGGCGGCGUUGGCA [JL ENG2 1.48] (Eterna round: R96, puzzle: Exclusion NG 2) , thanks.
Given back: 45.4
